Experiment: Inhibition of SHP-2 phosphatase
quantity-measured: Ki (µM)

{"columns": ["molecule", "output-unit", "obs-value"],
 "data": [
  ["CCc1cc(CC(NC(C)=O)C(=O)NCCCCC(=O)N[C@@H](CCSC)C(=O)O)ccc1N(C(=O)C(=O)O)c1ccccc1C(=O)O (stereo partly specified)", "µM", 73.2]
]}

----------
In this section, each of the compounds is paired with its reported pKi.
Biological target: Tyrosine-protein phosphatase non-receptor type 1 (Homo sapiens)
Sequence (P18031 whole entry): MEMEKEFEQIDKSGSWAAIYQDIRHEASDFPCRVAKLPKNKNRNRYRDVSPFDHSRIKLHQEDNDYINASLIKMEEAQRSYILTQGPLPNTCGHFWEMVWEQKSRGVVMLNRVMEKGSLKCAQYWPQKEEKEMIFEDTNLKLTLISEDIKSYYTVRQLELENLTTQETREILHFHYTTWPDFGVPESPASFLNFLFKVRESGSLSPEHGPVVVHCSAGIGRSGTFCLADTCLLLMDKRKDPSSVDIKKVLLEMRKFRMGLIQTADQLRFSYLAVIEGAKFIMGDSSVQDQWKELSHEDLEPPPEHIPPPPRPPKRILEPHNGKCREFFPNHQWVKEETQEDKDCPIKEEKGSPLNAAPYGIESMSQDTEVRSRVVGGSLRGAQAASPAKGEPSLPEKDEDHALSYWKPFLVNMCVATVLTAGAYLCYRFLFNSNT
pKi: −log10 of the molar value.
quantity-measured: pKi

{"columns": ["compound", "obs-value"],
 "data": [
  ["CCSCC[C@H](NC(=O)CCCCNC(=O)C(Cc1ccc(N(C(=O)C(=O)O)c2ccccc2C(=O)O)c(CC)c1)NC(C)=O)C(=O)O (stereo not given in full)", 6.89],
  ["CCc1cc(CC(NC(C)=O)C(=O)NCCCCC(=O)O)ccc1N(C(=O)C(=O)O)c1ccccc1C(=O)O (stereo not given)", 5.60],
  ["CCc1cc(CC(NC(C)=O)C(=O)NCc2ccc(Cl)cc2)ccc1N(C(=O)C(=O)O)c1ccccc1C(=O)O (stereo not given)", 5.92],
  ["CCc1cc(CC(NC(C)=O)C(=O)NCCCCC(=O)N[C@@H](CCSC)C(=O)OC)ccc1N(C(=O)C(=O)O)c1ccccc1C(=O)O (stereo not given in full)", 6.27],
  ["CCc1cc(CC(NC(C)=O)C(=O)NCCCCC(=O)N[C@@H](CCCCN)C(=O)O)ccc1N(C(=O)C(=O)O)c1ccccc1C(=O)O (stereo not given in full)", 6.15]
]}
